Just for reference, patent US20190142963A1 is where these values come from.

- study-target: T1, human Klotho β (human, UniProt Q86Z14 1-1044)
- T1 sequence (looked up): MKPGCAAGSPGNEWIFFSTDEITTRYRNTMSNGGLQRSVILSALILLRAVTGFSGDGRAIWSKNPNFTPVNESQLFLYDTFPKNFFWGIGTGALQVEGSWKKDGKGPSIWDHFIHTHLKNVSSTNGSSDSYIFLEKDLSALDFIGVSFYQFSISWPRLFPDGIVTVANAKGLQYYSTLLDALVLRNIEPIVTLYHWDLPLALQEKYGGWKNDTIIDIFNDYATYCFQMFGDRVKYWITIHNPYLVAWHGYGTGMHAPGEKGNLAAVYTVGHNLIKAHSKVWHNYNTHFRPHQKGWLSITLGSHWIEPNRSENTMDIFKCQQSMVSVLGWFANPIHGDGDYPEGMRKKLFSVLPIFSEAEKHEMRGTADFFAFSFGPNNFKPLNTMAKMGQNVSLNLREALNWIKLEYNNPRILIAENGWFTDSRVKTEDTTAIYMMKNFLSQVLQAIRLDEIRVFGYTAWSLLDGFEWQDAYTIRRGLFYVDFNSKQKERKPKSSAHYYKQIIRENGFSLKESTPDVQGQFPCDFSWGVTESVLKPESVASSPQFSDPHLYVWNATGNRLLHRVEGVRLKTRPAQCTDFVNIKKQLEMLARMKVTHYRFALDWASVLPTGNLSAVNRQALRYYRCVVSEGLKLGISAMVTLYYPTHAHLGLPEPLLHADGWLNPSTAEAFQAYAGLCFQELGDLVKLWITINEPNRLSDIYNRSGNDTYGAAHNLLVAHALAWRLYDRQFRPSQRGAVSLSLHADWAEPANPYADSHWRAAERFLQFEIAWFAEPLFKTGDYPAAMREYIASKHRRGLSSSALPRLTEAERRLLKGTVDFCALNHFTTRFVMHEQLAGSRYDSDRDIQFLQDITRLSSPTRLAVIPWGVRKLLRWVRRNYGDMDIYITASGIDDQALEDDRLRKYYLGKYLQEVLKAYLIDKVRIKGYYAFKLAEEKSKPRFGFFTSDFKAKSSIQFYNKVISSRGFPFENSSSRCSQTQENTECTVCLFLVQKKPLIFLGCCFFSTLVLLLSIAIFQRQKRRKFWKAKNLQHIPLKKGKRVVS
- assay-comment: cell-based or functional assay
Non-standard residues stand in square brackets, D forms with d. No end group written: not given here.
measured-parameter: IC50 of antagonism of FGF21 (assay of Example 1) (nM)

Solved entries:
> print(dat)
                                     binder  endpoint.value
1  PPDVGSSDPLSMVGPSQGR[dS]PSYAS-NH2 [FGF21 C25 d20]           33700
2  PPDVGSSDPLSMVGPSQGRSPSYAS-NH2 [FGF21 157-181]             283
3  [dP]PDVGSSDPLSMVGPSQGRSPSYAS-NH2 [FGF21 C25 d1]             877

P. PPDVGSSDPL[dS]MVGPSQGRSPSYAS-NH2 [FGF21 D11]
Q. PPDVGSSDPLSMVGPSQGRSPSYA[dS]-NH2 [FGF21 C25 d25]
### Prompt For this pair, P and Q , which shows a numerically higher IC50 of antagonism of FGF21 (assay of Example 1)? To answer, give the label that identifies your chosen option.
### Response Q
(Q: 264 nM, P: 57.3 nM)
